Target protein (sequence): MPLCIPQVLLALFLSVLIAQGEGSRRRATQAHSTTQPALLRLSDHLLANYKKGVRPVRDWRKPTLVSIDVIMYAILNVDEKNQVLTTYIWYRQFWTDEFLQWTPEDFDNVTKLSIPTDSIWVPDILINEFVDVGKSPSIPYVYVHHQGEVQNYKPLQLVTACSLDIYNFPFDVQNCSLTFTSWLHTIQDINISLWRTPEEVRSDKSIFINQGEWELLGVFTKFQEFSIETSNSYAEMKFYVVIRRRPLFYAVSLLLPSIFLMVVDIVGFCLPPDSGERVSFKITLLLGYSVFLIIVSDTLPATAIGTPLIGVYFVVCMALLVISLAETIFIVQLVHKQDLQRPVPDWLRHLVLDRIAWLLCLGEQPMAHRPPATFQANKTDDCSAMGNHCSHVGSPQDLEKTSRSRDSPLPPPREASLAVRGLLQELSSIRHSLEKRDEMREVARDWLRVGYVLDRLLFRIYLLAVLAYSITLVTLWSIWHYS
metric_name: Ki

- O=C(CCCN1CCC(O)(c2ccc(Cl)cc2)CC1)c1ccc(F)cc1: > 10 µM

---

Biological target: Histamine H1 receptor (Cavia porcellus)
metric_name: Ki

* CCN1CCCC1CNC(=O)c1cc(S(=O)(=O)CC)c(N)cc1OC (stereo unspecified) [NSC_2159] | > 10 µM

---

Adenosine receptor A1 (Rattus norvegicus, UniProt P25099): reported Ki for various compounds.
Sequence (P25099 whole entry): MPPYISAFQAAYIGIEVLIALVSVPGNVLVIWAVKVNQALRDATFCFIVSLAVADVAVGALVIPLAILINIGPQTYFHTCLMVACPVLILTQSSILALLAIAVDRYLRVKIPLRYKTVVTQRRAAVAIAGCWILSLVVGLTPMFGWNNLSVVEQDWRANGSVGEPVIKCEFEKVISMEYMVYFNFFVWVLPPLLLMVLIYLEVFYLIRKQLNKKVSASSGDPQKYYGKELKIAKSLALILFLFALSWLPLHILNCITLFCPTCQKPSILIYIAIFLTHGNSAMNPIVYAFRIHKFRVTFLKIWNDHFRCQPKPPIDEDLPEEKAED
metric_name: Ki

• O=C(CCCN1CCC(O)(c2ccc(Cl)cc2)CC1)c1ccc(F)cc1 = > 10 µM
• CCN1CCCC1CNC(=O)c1cc(S(=O)(=O)CC)c(N)cc1OC (configuration not stated) [NSC_2159] = > 10 µM

---

Target: Sigma non-opioid intracellular receptor 1 (Mus musculus, UniProt O55242)
pKi: −log10 of the molar value.
metric_name: pKi

• CN1CCN(C2=c3ccccc3=Nc3ccc(Cl)cc3N2)CC1 = 5.19

---

What follows is a record of Ki for Glycine receptor subunit alpha-1 (Rattus norvegicus, UniProt P07727).
metric_name: Ki

* CN1CCN(C2=c3ccccc3=Nc3ccc(Cl)cc3N2)CC1 | > 10 µM
* O=C(CCCN1CCC(O)(c2ccc(Cl)cc2)CC1)c1ccc(F)cc1 | > 10 µM
* CCN1CCCC1CNC(=O)c1cc(S(=O)(=O)CC)c(N)cc1OC (stereo not drawn) [NSC_2159] | > 10 µM

---

Target: Type-1 angiotensin II receptor (Oryctolagus cuniculus)
Sequence (P34976 whole entry): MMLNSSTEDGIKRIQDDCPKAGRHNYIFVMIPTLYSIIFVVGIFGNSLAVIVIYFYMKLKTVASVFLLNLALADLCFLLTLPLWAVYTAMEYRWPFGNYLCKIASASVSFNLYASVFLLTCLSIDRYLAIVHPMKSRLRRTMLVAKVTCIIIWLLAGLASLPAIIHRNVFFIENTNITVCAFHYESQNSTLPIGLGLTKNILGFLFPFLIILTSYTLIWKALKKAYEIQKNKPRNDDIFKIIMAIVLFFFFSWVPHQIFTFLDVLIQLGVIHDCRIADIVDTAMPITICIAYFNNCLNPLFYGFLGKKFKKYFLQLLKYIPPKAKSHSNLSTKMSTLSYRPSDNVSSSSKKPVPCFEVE
pKi: −log10 of the molar value.
metric_name: pKi

• CN1CCN(C2=c3ccccc3=Nc3ccc(Cl)cc3N2)CC1 = < 5.00

---

Quick reference for Ki among some molecules
Target protein (sequence): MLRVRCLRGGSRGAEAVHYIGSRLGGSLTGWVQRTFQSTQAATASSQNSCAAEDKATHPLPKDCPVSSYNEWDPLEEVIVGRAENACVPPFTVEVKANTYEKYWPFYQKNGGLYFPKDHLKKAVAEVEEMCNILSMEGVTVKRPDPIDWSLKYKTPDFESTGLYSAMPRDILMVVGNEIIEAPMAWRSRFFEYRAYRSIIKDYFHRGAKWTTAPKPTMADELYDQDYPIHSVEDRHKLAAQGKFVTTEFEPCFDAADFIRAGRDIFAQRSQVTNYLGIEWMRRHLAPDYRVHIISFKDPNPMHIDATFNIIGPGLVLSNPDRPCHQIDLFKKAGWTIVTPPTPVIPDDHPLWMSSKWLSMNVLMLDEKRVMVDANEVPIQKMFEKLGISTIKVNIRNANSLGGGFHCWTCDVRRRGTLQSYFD
metric_name: Ki

- CN1CCN(C2=c3ccccc3=Nc3ccc(Cl)cc3N2)CC1: > 10 µM
- CCN1CCCC1CNC(=O)c1cc(S(=O)(=O)CC)c(N)cc1OC (configuration not stated) [NSC_2159]: > 10 µM

---

Target: Glutamate receptor 3 (Rattus norvegicus, UniProt P19492)
metric_name: Ki

* CN1CCN(C2=c3ccccc3=Nc3ccc(Cl)cc3N2)CC1 | > 10 µM

---

Target: Gamma-aminobutyric acid receptor subunit alpha-1 (Rattus norvegicus, UniProt P62813)
metric_name: Ki

* CCN1CCCC1CNC(=O)c1cc(S(=O)(=O)CC)c(N)cc1OC (stereo unspecified) | > 10 µM

---

Biological target: Nischarin (Rattus norvegicus, UniProt Q4G017)
Sequence (Q4G017 whole entry): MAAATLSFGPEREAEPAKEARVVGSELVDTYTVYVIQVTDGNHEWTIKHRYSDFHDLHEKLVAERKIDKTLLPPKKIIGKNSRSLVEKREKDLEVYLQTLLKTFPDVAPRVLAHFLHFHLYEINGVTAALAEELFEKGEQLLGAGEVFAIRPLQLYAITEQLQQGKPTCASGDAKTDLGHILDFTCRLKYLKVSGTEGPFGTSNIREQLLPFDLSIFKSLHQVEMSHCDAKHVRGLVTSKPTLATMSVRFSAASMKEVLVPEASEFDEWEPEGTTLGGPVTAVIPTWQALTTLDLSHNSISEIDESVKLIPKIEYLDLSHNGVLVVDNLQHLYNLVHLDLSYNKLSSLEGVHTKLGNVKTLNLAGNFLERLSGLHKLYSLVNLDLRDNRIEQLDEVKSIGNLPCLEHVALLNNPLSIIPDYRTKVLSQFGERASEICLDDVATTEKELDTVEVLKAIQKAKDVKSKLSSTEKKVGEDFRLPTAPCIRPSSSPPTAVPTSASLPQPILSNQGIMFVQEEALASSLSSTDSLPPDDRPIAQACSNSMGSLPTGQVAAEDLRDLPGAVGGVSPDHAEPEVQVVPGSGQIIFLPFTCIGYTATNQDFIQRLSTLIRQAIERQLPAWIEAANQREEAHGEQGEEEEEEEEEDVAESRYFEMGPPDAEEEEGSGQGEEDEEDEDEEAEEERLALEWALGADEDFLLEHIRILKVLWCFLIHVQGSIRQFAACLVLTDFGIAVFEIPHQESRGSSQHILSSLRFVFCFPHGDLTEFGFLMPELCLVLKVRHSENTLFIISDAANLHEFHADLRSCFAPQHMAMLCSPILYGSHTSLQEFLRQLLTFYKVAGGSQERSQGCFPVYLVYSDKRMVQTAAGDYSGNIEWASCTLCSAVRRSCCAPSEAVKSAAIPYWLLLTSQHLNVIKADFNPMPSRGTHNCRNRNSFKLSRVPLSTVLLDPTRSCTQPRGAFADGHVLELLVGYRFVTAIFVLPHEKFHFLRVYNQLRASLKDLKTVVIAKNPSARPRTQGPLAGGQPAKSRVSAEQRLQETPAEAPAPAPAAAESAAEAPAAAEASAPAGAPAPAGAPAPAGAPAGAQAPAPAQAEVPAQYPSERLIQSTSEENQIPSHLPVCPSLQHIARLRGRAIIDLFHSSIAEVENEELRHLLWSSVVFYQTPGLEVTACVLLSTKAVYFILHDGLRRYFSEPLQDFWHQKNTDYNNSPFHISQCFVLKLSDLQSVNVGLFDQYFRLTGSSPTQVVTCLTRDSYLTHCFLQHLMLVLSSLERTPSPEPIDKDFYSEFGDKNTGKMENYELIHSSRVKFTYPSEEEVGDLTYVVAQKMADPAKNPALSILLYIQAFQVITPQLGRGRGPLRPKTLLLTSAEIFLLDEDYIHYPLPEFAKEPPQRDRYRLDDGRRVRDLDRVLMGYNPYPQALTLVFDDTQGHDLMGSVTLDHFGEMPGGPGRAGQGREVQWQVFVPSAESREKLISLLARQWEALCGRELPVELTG
pKi: −log10 of the molar value.
metric_name: pKi

* O=C(CCCN1CCC(O)(c2ccc(Cl)cc2)CC1)c1ccc(F)cc1 | < 5.00

---

Listing of entries alongside the reported pKi.
Target: Voltage-dependent L-type calcium channel subunit alpha-1C (Rattus norvegicus, UniProt P22002)
pKi: −log10 of the molar value.
metric_name: pKi

• CN1CCN(C2=c3ccccc3=Nc3ccc(Cl)cc3N2)CC1 = < 5.00
• CCN1CCCC1CNC(=O)c1cc(S(=O)(=O)CC)c(N)cc1OC (configuration not stated) [NSC_2159] = < 5.00

---

Target: D(2) dopamine receptor (Rattus norvegicus, UniProt P61169)
Sequence (P61169 whole entry): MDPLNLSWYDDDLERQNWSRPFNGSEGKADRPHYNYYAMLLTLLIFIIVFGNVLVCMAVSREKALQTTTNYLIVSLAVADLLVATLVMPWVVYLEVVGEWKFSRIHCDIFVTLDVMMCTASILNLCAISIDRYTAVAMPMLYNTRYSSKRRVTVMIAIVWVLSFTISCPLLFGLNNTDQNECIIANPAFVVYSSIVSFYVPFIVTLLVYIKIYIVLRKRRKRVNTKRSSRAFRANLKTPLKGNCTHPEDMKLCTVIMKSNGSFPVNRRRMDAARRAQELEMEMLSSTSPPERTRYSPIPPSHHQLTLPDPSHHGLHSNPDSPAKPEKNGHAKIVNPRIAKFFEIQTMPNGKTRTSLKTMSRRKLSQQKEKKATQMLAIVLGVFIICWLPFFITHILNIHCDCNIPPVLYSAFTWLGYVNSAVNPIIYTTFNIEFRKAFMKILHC
metric_name: Ki (nM)

* CCN1CCCC1CNC(=O)c1cc(S(=O)(=O)CC)c(N)cc1OC (stereo unspecified) [NSC_2159] | 21

---

Molecular target: 5-hydroxytryptamine receptor 2A (Rattus norvegicus, UniProt P14842)
Sequence (P14842 whole entry): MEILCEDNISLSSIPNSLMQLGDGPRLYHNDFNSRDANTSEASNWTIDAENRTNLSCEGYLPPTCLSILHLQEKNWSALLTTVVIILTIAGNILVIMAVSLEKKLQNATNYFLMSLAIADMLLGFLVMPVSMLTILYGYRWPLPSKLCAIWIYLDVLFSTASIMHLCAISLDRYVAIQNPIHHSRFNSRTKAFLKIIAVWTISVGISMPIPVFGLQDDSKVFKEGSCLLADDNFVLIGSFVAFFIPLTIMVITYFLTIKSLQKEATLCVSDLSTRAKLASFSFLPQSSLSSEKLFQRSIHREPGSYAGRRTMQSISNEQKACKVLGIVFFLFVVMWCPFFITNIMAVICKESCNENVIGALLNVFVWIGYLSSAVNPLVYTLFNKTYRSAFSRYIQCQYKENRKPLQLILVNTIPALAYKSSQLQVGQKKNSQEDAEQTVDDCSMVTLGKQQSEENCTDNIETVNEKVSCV
metric_name: Ki (µM)

* CCN1CCCC1CNC(=O)c1cc(S(=O)(=O)CC)c(N)cc1OC (stereo unspecified) | 2

---

Target: Glutamate receptor ionotropic, NMDA 1 (Rattus norvegicus, UniProt P35439)
pKi: −log10 of the molar value.
metric_name: pKi

• CCN1CCCC1CNC(=O)c1cc(S(=O)(=O)CC)c(N)cc1OC (stereo unspecified) [NSC_2159] = < 5.00

---

Molecular target: D(3) dopamine receptor (Bos taurus, UniProt F1N454)
Sequence (F1N454 whole entry): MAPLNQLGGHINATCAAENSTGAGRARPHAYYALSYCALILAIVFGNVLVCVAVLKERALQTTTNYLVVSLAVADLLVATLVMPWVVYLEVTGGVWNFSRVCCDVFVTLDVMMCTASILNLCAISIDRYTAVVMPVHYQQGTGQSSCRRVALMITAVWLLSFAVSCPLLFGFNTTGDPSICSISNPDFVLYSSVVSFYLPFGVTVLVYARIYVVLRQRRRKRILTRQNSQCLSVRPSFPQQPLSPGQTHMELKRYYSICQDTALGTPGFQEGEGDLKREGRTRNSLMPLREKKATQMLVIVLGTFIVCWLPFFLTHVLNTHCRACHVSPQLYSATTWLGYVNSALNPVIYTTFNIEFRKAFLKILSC
Each entry below carries its recorded Ki.
metric_name: Ki (nM)

- CN1CCN(C2=c3ccccc3=Nc3ccc(Cl)cc3N2)CC1: 880
- CCN1CCCC1CNC(=O)c1cc(S(=O)(=O)CC)c(N)cc1OC (configuration not stated): 2.9

---

What follows is a record of Ki for Glutamate receptor ionotropic, kainate 1 (Rattus norvegicus).
metric_name: Ki

- O=C(CCCN1CCC(O)(c2ccc(Cl)cc2)CC1)c1ccc(F)cc1: > 10 µM
- CN1CCN(C2=c3ccccc3=Nc3ccc(Cl)cc3N2)CC1: > 10 µM
- CCN1CCCC1CNC(=O)c1cc(S(=O)(=O)CC)c(N)cc1OC (stereo not drawn): > 10 µM

---

Molecular target: Muscarinic acetylcholine receptor M2 (Rattus norvegicus, UniProt P10980)
Sequence (P10980 whole entry): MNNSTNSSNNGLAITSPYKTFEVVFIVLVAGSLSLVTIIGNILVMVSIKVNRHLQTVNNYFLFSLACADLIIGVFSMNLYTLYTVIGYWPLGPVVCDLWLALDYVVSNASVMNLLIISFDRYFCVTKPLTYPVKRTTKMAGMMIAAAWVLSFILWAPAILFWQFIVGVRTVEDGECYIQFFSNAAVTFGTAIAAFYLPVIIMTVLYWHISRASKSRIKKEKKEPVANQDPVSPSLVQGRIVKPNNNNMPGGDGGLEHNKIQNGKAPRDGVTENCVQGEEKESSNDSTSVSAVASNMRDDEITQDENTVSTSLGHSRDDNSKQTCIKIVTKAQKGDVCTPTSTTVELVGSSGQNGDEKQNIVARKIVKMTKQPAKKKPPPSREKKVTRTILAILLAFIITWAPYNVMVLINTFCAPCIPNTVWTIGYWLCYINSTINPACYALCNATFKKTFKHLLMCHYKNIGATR
metric_name: Ki

* CCN1CCCC1CNC(=O)c1cc(S(=O)(=O)CC)c(N)cc1OC (stereo unspecified) [NSC_2159] | > 10 µM

---

Biological target: 5-hydroxytryptamine receptor 2C (Sus scrofa)
Sequence (G7ZKZ7 whole entry): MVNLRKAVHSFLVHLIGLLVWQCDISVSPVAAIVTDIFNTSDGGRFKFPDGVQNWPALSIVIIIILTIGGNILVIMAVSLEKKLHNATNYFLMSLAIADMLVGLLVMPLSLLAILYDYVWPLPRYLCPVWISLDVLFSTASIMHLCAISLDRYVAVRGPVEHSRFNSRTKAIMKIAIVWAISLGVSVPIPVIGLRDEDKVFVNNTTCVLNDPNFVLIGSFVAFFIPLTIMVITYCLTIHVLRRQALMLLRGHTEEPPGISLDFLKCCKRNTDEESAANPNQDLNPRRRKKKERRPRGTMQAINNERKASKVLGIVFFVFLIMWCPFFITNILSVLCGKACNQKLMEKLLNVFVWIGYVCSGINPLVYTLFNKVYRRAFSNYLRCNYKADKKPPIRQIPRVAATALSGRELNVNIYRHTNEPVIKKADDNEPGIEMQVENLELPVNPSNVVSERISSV
metric_name: Ki

- CCN1CCCC1CNC(=O)c1cc(S(=O)(=O)CC)c(N)cc1OC (stereo unspecified): > 10 µM

---

Target: Gamma-aminobutyric acid type B receptor subunit 1 (UniProt Q9Z0U4)
Sequence (Q9Z0U4 whole entry): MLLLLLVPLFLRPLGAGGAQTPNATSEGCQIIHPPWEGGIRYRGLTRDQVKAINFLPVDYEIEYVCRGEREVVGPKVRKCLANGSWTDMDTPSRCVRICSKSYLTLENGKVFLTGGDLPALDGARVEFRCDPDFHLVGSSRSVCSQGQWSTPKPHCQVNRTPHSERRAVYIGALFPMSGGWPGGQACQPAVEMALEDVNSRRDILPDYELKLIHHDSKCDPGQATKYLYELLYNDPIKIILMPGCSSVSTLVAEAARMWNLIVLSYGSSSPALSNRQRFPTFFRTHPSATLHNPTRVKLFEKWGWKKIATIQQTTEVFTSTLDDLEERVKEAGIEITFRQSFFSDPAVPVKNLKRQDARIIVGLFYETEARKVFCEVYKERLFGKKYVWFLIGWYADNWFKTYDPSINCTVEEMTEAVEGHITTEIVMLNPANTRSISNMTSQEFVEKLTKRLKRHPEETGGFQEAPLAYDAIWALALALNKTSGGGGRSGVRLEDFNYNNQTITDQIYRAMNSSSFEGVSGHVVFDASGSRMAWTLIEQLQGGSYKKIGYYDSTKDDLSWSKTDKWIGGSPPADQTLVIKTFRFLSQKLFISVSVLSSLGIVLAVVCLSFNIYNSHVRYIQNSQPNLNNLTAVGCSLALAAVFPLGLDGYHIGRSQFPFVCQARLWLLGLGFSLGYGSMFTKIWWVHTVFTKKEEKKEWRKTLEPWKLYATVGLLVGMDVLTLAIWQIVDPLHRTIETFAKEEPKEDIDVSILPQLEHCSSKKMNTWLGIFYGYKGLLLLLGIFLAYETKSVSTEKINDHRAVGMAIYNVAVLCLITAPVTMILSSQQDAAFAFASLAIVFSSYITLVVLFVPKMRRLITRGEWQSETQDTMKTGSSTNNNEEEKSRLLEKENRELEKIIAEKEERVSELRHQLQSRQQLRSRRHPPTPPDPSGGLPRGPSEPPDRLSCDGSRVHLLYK
pKi: −log10 of the molar value.
This section presents compounds with their documented pKi values.
metric_name: pKi

- CN1CCN(C2=c3ccccc3=Nc3ccc(Cl)cc3N2)CC1: < 5.00
- O=C(CCCN1CCC(O)(c2ccc(Cl)cc2)CC1)c1ccc(F)cc1: < 5.00

The reported measurements were obtained from BindingDB's records for PubMed 8996185.
